B1: NF2 (merlin) isoform 7, human, full length (507 aa, lacks exons 2-3 = isoform-1 residues 39-121; exon-16 C-terminus), P35240-4 (parent)
chain: MAGAIASRMSFSSLKRKQPKTFTVRIVTMDAEMEFNCEVKKQILDEKIYCPPEASVLLASYAVQAKYGDYDPSVHKRGFLAQEELLPKRVINLYQMTPEMWEERITAWYAEHRGRARDEAEMEYLKIAQDLEMYGVNYFAIRNKKGTELLLGVDALGLHIYDPENRLTPKISFPWNEIRNISYSDKEFTIKPLDKKIDVFKFNSSKLRVNKLILQLCIGNHDLFMRRRKADSLEVQQMKAQAREEKARKQMERQRLAREKQMREEAERTRDELERRLLQMKEEATMANEALMRSEETADLLAEKAQITEEEAKLLAQKAAEAEQEMQRIKATAIRTEEEKRLMEQKVLEAEVLALKMAEESERRAKEADQLKQDLQEAREAERRAKQKLLEIATKPTYPPMNPIPAPLPPDIPSFNLIGDSLSFDFKDTDMKRLSMEIEKEKVEYMEKSKHLQEQLNELKTEIEALKLKERETALDILHNENSDRGGSSKHNTIKKPQAQGRRPICI

Variants of: B1
measurement-protocol: reverse yeast two-hybrid deep mutational scan (rY2H-seq): NF2 isoform 7 mutant library as bait mated with wild-type prey strains; selection on medium lacking adenine for non-interacting pairs; NextSeq paired-end sequencing; enrichment vs …
recorded-conditions: with KDM1A (lysine-specific histone demethylase 1A; the table's label AOF2 is a gene synonym of KDM1A), O60341; yeast diploids after mating (RBait_S3 x RPrey_S3), 30 °C, selection for reporter genes on NB agar; human tyrosine kinase ABL2 co-expressed as the active kinase …; HIGHER = WEAKER BINDING (the opposite of display enrichments): higher = stronger loss of interaction: reverse Y2H selects yeast in which bait and prey do NOT interact (growth without adenine), so a …; hits-only table; scale: rY2H score; numbering: uniprot, sequence starts at 1
measured-endpoint: enrichment

mutation-list	enrichment
D484L	4.48
Q82A	4.66
K313A	3.82
